# Substrate: ICOS (Homo sapiens (Human)) (UniProt Q9Y6W8)
# Sequence (Q9Y6W8 21-199 limits assumed): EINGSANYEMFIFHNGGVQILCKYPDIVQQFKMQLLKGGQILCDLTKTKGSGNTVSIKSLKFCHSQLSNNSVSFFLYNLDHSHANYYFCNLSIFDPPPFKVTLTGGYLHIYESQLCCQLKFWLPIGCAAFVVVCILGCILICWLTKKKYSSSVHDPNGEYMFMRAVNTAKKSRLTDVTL
# Protocol: flow cytometry, transfected cells
Measured quantity: MFI ratio to WT (ΔWT) (fold)
Enter your answer as a number in fold; do not include the unit.

The following binders have reported results that may help.
Binder	MFI ratio to WT (ΔWT), fold
ICOSL-Fc N52L/N57H/Q100R (Fc fusion) DTQEKEVRAMVGSDVELSCACPEGSRFDLNDVYVYWQTSESKTVVTYHIPQLSSLEHVDSRYRNRALMSPAGMLRGDFSLRLFNVTPQDEQKFHCLVLSRSLGFQEVLSVEVTLHVAANFSVPVVSAPHSPSQDELTFTCTSINGYPRPNVYWINKTDNSLLDQALQNDTVFLNMRGLYDVVSVLRIARTPSVNIGCCIENVLLQQNLTVGSQTGNDIGERDKITENPVSTGEKNAAT	1.18
ICOSL-Fc N52T/N57H/Q100S (Fc fusion) DTQEKEVRAMVGSDVELSCACPEGSRFDLNDVYVYWQTSESKTVVTYHIPQTSSLEHVDSRYRNRALMSPAGMLRGDFSLRLFNVTPQDEQKFHCLVLSSSLGFQEVLSVEVTLHVAANFSVPVVSAPHSPSQDELTFTCTSINGYPRPNVYWINKTDNSLLDQALQNDTVFLNMRGLYDVVSVLRIARTPSVNIGCCIENVLLQQNLTVGSQTGNDIGERDKITENPVSTGEKNAAT	1.22
ICOSL-Fc N52C/N57E/Q100S (Fc fusion) DTQEKEVRAMVGSDVELSCACPEGSRFDLNDVYVYWQTSESKTVVTYHIPQCSSLEEVDSRYRNRALMSPAGMLRGDFSLRLFNVTPQDEQKFHCLVLSSSLGFQEVLSVEVTLHVAANFSVPVVSAPHSPSQDELTFTCTSINGYPRPNVYWINKTDNSLLDQALQNDTVFLNMRGLYDVVSVLRIARTPSVNIGCCIENVLLQQNLTVGSQTGNDIGERDKITENPVSTGEKNAAT	0.59
ICOSL-Fc N52S/N57H/Q100E (Fc fusion) DTQEKEVRAMVGSDVELSCACPEGSRFDLNDVYVYWQTSESKTVVTYHIPQSSSLEHVDSRYRNRALMSPAGMLRGDFSLRLFNVTPQDEQKFHCLVLSESLGFQEVLSVEVTLHVAANFSVPVVSAPHSPSQDELTFTCTSINGYPRPNVYWINKTDNSLLDQALQNDTVFLNMRGLYDVVSVLRIARTPSVNIGCCIENVLLQQNLTVGSQTGNDIGERDKITENPVSTGEKNAAT	1.22

Problem: Fill blank: measured MFI ratio to WT (ΔWT) of the binder ICOSL-Fc N52A/N57H/Q100S (Fc fusion) DTQEKEVRAMVGSDVELSCACPEGSRFDLNDVYVYWQTSESKTVVTYHIPQASSLEHVDSRYRNRALMSPAGMLRGDFSLRLFNVTPQDEQKFHCLVLSSSLGFQEVLSVEVTLHVAANFSVPVVSAPHSPSQDELTFTCTSINGYPRPNVYWINKTDNSLLDQALQNDTVFLNMRGLYDVVSVLRIARTPSVNIGCCIENVLLQQNLTVGSQTGNDIGERDKITENPVSTGEKNAAT is ____.
Result: 1.44
